Target: Recombinant human FAP (Homo sapiens, UniProt Q12884)
Construct: purchased R&D systems
Test: FAP inhibition, fluorogenic substrate Z-Gly-Pro-AMC
Assay type: biochemical
Conditions: 25° C., Z-Gly-Pro-AMC substrate
Endpoint Name: IC50 (nM)

[
  {
    "Molecule": "N#C[C@@H]1C[C@H](F)CN1C(=O)CN1CCC(Nc2cccc3ncccc23)CC1 [Example 113]",
    "Target": "Recombinant human FAP (Homo sapiens, UniProt Q12884)",
    "Readout Unit": "nM",
    "Value Observed": 1.65
  }
]

1. CN(c1cccc2ncccc12)[C@@H]1CCN(CC(=O)N2CCC[C@H]2C#N)C1 [Example 139]
2. Cc1ccc2ncccc2c1NC1CCN(CC(=O)N2C[C@@H](F)C[C@H]2C#N)CC1 [Example 134]
3. N#C[C@@H]1CCCN1C(=O)CN1CCC(Nc2cccc3ncccc23)CC1 [Example 110]
Thanks in advance: please rank these 3 entries by IC50, highest to lowest. API: response body holds the labels in the requested order.
2, 1, 3

----------
Biological target: recombinant human DPP7 (Homo sapiens, UniProt Q9UHL4)
Construct: purchased R&D Systems
Assay: DPP7 inhibition, fluorogenic substrate Lys-Pro-AMC
Assay type: biochemical
Conditions: recombinant human DPP7
Endpoint Name: IC50 (nM)

Before answering, review these 2 worked examples.
[
  {
    "Compound": "CN(C(=O)c1ccc(N[C@H]2CCN(CC(=O)N3C[C@@H](F)C[C@H]3C#N)C2)c2cccnc12)c1ccccc1 [Example 284]",
    "Target": "recombinant human DPP7 (Homo sapiens, UniProt Q9UHL4)",
    "IC50 / nM": 932
  },
  {
    "Compound": "COc1cnc2cccc(N[C@@H]3CCN(CC(=O)N4C[C@@H](F)C[C@H]4C#N)C3)c2c1 [Example 205]",
    "Target": "recombinant human DPP7 (Homo sapiens, UniProt Q9UHL4)",
    "IC50 / nM": 1760
  }
]

A. N#C[C@@H]1C[C@H](F)CN1C(=O)CN1CCC(Oc2cccc3ncccc23)CC1 [Example 425]
B. N#C[C@@H]1C[C@H](F)CN1C(=O)CN1CCC(Nc2ccc(C(=O)Nc3ccccn3)c3ncccc23)CC1 [Example 404]
For the pair A and B , which entry has the numerically smaller recorded IC50? When you have decided, please share the label of that item.
B

----------
Target: DPP4 (Homo sapiens, UniProt P27487)
Sequence (P27487 whole entry): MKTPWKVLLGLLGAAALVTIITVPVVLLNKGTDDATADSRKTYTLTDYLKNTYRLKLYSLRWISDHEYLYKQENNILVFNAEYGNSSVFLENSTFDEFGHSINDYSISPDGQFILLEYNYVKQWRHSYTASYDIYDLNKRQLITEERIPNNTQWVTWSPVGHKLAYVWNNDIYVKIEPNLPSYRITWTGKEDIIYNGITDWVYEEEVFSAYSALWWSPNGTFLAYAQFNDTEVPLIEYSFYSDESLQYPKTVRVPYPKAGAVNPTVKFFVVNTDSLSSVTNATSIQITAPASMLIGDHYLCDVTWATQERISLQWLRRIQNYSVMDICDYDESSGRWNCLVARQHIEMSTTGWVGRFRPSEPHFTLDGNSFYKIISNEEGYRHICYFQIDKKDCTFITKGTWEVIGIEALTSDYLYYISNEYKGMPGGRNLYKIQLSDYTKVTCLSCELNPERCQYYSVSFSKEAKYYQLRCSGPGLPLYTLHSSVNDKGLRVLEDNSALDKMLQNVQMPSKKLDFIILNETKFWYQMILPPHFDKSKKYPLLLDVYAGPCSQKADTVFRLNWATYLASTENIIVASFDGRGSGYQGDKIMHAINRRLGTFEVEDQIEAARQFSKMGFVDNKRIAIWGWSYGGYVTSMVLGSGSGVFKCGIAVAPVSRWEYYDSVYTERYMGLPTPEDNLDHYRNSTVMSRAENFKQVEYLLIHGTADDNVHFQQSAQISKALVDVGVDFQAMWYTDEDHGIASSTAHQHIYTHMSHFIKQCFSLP
Test: DPP4 inhibition, fluorogenic substrate H-Gly-Pro-AMC
Type: biochemical
Set-up: purchased R&D Systems
Details: recombinant human DPP4
pIC50: −log10 of the molar value.
Endpoint Name: pIC50

Here is how some compounds turned out for pIC50.
[
  {
    "Compound": "N#C[C@@H]1C[C@H](F)CN1C(=O)CN1CC[C@@H](Nc2ccnc3c(F)cccc23)C1 [Example 194]",
    "pIC50": 4.71
  },
  {
    "Compound": "CC(=O)Nc1ccc(NC2CCN(CC(=O)N3CCC[C@H]3C#N)CC2)c2cccnc12 [Example 408]",
    "pIC50": 5.09
  },
  {
    "Compound": "N#C[C@@H]1CCCN1C(=O)CN1CC[C@@H](Nc2ccc3nc(C(F)(F)F)ccc3c2)C1 [Example 217]",
    "pIC50": 4.54
  },
  {
    "Compound": "N#C[C@@H]1C[C@H](F)CN1C(=O)CN1CC[C@H](Nc2ccc(NC(=O)c3ccccc3)c3ncccc23)C1 [Example 298]",
    "pIC50": 5.73
  },
  {
    "Compound": "N#Cc1ccc2c(OC3CCN(CC(=O)N4CCC[C@H]4C#N)CC3)cccc2n1 [Example 430]",
    "pIC50": 4.53
  }
]

I. COc1cccc2c(N[C@@H]3CCN(CC(=O)N4C[C@@H](F)C[C@H]4C#N)C3)ccnc12 [Example 195]
II. N#C[C@@H]1C[C@H](F)CN1C(=O)CN1CCC(Nc2ccc(F)c3ncccc23)CC1 [Example 330]
III. N#C[C@@H]1C[C@H](F)CN1C(=O)CN1CCC(Nc2cccc3cnccc23)CC1 [Example 340]
IV. N#C[C@@H]1C[C@H](F)CN1C(=O)CN1CCC(Nc2cccc3ncc(F)cc23)CC1 [Example 349]
Ascending by pIC50, please. Returns: the labels arranged in the requested order.
I, III, II, IV

----------
Biological target: recombinant human PREP (Homo sapiens)
Construct: purchased R&D System
Sequence (P48147 whole entry): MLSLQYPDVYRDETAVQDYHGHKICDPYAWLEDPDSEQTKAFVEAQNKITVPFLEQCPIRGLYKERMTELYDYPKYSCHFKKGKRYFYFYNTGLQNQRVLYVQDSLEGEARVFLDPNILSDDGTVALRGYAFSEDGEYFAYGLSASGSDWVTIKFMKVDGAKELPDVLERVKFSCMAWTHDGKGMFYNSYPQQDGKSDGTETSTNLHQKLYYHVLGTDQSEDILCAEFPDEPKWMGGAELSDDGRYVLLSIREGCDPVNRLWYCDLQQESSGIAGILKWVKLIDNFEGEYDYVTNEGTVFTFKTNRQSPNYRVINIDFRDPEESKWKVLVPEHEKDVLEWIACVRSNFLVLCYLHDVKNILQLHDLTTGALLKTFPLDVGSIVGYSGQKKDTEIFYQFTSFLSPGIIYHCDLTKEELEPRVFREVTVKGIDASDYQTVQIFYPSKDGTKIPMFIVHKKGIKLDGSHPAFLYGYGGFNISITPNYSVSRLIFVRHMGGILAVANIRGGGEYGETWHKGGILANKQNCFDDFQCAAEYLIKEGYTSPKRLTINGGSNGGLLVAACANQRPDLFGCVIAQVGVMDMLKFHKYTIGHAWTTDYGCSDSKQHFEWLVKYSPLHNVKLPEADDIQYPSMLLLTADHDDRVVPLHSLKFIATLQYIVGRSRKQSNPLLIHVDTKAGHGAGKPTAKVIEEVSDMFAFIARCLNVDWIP
Test: PREP inhibition, fluorogenic substrate Z-Gly-Pro-AMC
Type: biochemical
Details: Inhibitory Activity (IC50, nM) PREP, recombinant human PREP
Endpoint Name: IC50 (nM)

[
  {
    "Smiles": "Cc1ccc2ncccc2c1N[C@@H]1CCN(CC(=O)N2C[C@@H](F)C[C@H]2C#N)C1",
    "IC50 [nM]": 1560
  }
]

I. N#C[C@@H]1C[C@H](F)CN1C(=O)CN1CCC(Nc2ccc(C(=O)Nc3ncccn3)c3ncccc23)CC1
II. N#C[C@@H]1C[C@H](F)CN1C(=O)CN1CCC(Oc2nccc3ccccc23)CC1
III. CCN(c1cnc2ccccc2c1)C1CCN(CC(=O)N2C[C@@H](F)C[C@H]2C#N)CC1
rank_up(items): orders items by reported IC50 in ascending numerical order. Please reply with the labels ordered as requested. Many thanks.
I, III, II
(I: 60.2 nM, III: 117 nM, II: 1100 nM)

----------
Biological target: Recombinant human FAP (Homo sapiens, UniProt Q12884)
Construct: purchased R&D systems
Experiment: FAP inhibition, fluorogenic substrate Z-Gly-Pro-AMC
Type: biochemical
Details: 25° C., Z-Gly-Pro-AMC substrate
pIC50: −log10 of the molar value.
Endpoint Name: pIC50

Recorded results for 6 compounds are shown here.
[
  {
    "Smiles": "N#C[C@@H]1CCCN1C(=O)CN1CC[C@H](Oc2ccccc2-c2cc[nH]n2)C1",
    "pIC50": 6.99
  },
  {
    "Smiles": "N#C[C@@H]1CCCN1C(=O)CN1CC[C@H](NC(=O)c2cc3ccccc3s2)C1",
    "pIC50": 7.49
  },
  {
    "Smiles": "CN(c1ccc2cccnc2c1)[C@H]1CCN(CC(=O)N2CCC[C@H]2C#N)C1",
    "pIC50": 8.18
  },
  {
    "Smiles": "Cc1ccc2ncc(N(C)[C@H]3CCN(CC(=O)N4CCC[C@H]4C#N)C3)cc2c1",
    "pIC50": 8.96
  },
  {
    "Smiles": "N#C[C@@H]1CCCN1C(=O)CN1CC[C@H](Oc2cccc3cccnc23)C1",
    "pIC50": 7.72
  },
  {
    "Smiles": "N#C[C@@H]1CCCN1C(=O)CN1CC[C@@H](Nc2cncc3ccccc23)C1",
    "pIC50": 8.67
  }
]

a. CN(c1cncc2ccccc12)[C@H]1CCN(CC(=O)N2CCC[C@H]2C#N)C1
b. Cc1cccc2c(C(=O)N[C@H]3CCN(CC(=O)N4CCC[C@H]4C#N)C3)coc12
When the recorded pIC50 values are compared, which is smaller: that of a or that of b ? Answer format: the label of the selected item.
b

----------
Molecular target: Recombinant human FAP (Homo sapiens)
Construct: purchased R&D systems
Sequence (Q12884 1-760): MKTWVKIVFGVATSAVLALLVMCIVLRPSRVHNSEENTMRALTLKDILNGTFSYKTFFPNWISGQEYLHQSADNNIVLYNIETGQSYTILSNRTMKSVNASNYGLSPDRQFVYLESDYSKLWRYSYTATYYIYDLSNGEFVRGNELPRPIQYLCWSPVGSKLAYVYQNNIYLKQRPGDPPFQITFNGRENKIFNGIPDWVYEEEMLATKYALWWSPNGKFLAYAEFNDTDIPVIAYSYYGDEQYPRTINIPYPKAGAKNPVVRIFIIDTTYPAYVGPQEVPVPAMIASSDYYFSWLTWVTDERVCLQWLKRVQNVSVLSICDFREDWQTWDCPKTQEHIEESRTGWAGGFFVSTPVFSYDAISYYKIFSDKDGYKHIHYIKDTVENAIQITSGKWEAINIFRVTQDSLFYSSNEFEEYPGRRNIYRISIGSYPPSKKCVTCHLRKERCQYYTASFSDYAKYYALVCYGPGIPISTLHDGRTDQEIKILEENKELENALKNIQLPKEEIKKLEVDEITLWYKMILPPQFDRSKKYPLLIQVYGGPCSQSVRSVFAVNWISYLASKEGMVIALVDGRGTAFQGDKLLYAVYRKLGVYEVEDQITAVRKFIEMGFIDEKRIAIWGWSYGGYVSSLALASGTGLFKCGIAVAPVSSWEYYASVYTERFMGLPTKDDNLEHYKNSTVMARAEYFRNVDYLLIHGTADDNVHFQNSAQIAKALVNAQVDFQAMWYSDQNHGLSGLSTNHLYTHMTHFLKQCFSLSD
Assay: FAP inhibition, fluorogenic substrate Z-Gly-Pro-AMC
Format: biochemical
Conditions: 25° C., Z-Gly-Pro-AMC substrate
Endpoint Name: IC50 (nM)

// solved cases for IC50 follow
[
  {
    "Smiles": "N#C[C@@H]1C[C@H](F)CN1C(=O)CN1CCC(Oc2ccnc3ccc(Cl)cc23)CC1",
    "Value Observed": 0.65
  },
  {
    "Smiles": "N#C[C@@H]1CCCN1C(=O)CN1CC[C@@H](Nc2cccc(-c3ccccc3)c2)C1",
    "Value Observed": 25.3
  },
  {
    "Smiles": "N#C[C@@H]1CCCN1C(=O)CN1CC[C@H](NC(=O)c2coc3c(F)cccc23)C1",
    "Value Observed": 16.4
  },
  {
    "Smiles": "N#C[C@@H]1C[C@H](F)CN1C(=O)CN1CCC(Nc2cc(F)cc3ncccc23)CC1",
    "Value Observed": 2.17
  }
]

P. CN(c1cnc2ccc(F)cc2c1)[C@H]1CCN(CC(=O)N2CCC[C@H]2C#N)C1
Q. N#C[C@@H]1CCCN1C(=O)CN1CC[C@H](NC(=O)c2ccc3occc3c2)C1
P or Q : whose IC50 is greater? Returns: label corresponding to the selected item.
Q
